system: OVCAR-4 ovarian; test: NCI-60 one-dose screen, 48 h (100 = growth as untreated, 0 = no growth, -100 = all killed); conditions: 10 µM unless noted
About 83,000 compounds went through this panel and 20% of them were active in at least one assay; those are over-represented in the sample as a whole.
MEASURED_ATTRIBUTE: growth (%)
Unit % implied. Number only.

SMILES_DATA	growth / %
O=C(Nc1cccc(-n2ccc3c(NC(=O)c4ccccc4)nccc32)c1)c1ccc(Cl)c(Cl)c1	-88.7
O=[N+]([O-])c1ccc(N/N=C/c2ccccc2O)nc1	39.3
CCN(CC)CCCCCCCCNc1c2ccc(Cl)cc2nc2ccc(OC)cc12	-49.8
CCCCn1cnc2c(SCc3ccc([N+](=O)[O-])cc3)nc(N)nc21	76.3
CC(C)CCSc1nc(Nc2ccccc2)c(C#N)c(-c2ccc(F)cc2)n1	-18

Next item in the queue.
Can you look up the measured growth of COc1ccc(-c2cc(-c3cn(-c4cccc(Cl)c4)nc3-c3ccc(OC)cc3)[nH]c(=S)n2)cc1 for me?
75.8

----------
tested on: HT29 colon; assay: NCI-60 one-dose screen, 48 h; settings: 10 µM unless noted
The panel holds about 83,000 compounds, 20% with a hit somewhere; the sample as a whole holds those more often. The source made the active and inactive calls. Rule for the calls: active = growth percent below 10; inactive = the rest.
Your answer must be one of the following: active, inactive

Solved cases below.
COMPOUND	LABEL_CLASS
COc1ccc(-c2nn(C(=O)NCCN(C)C)cc2-c2ccncc2)cc1Cl	inactive
O=C(Nc1cccc(N=Cc2c(O)ccc3ccccc23)c1)c1ccccc1	inactive
COC(=O)OC1C(O[C@H]2C[C@H]3[C@@H]4CC=C5C[C@@H](O)CC[C@]5(C)[C@H]4CC[C@]3(C)[C@H]2[C@H](C)C(=O)CCC(C)C)OCC(O)C1OC1OCC(O)C(O)C1OC(=O)c1ccc(OC)cc1 (stereo partly drawn)	active
O=C1Nc2ccccc2/C1=C\c1nc(C2CCN(S(=O)(=O)c3ccc(F)cc3)CC2)n2ccccc12	inactive

Each compound tested received a call. Report the one for CCOC(=O)c1cnc(SCC)nc1SC#N .
inactive

Each compound tested received a call. Report the one for Cn1cnc([N+](=O)[O-])c1S(=O)(=O)Oc1ccccc1 .
inactive

Each compound tested received a call. Report the one for CCN(C(=O)CCl)C(C)(C)C(SSSC(c1ccc(Cl)cc1)C(C)(C)N(CC)C(=O)CCl)c1ccc(Cl)cc1 (stereo not drawn) .
inactive

Each compound tested received a call. Report the one for NS(=O)(=O)c1ccc(CCn2c(SCC(=O)N/N=C/c3cc4ccccc4[nH]3)nc3ccccc3c2=O)cc1 .
inactive

Each compound tested received a call. Report the one for N/N=C(\C(=N\N)c1ccccc1)c1ccccc1 .
inactive

----------
system: SK-OV-3 ovarian; test: NCI-60 one-dose screen, 48 h (100 = growth as untreated, 0 = no growth, -100 = all killed); conditions: 10 µM unless noted
About 83,000 compounds went through this panel and 20% of them were active in at least one assay; those are over-represented in the sample as a whole.
MEASURED_ATTRIBUTE: growth (%)
Unit % implied. Number only.

MOLECULE	UNIT_NAME	MEASURED_VALUE
COc1cc(-c2nc(-c3ccc(-c4nc5ccc(F)cc5[nH]4)cc3)no2)cc(OC)c1OC	%	85.5
COc1ccccc1CNCCCN1C(=O)c2ccc3c4c(ccc(c24)C1=O)C(=O)N(CCCNCCCN)C3=O	%	34.7
CC(NC(=O)c1ccccc1)C(=O)Nc1ccccc1 (configuration not stated)	%	113
c1coc(CNc2c3ccccc3nc3ccccc23)c1	%	70.9
COc1ccccc1/C=N\Nc1ccc([N+](=O)[O-])cn1	%	108
O/N=C/c1ccncc1	%	100
CN(C)CC(=O)c1ccc2cc(Br)c3ccccc3c2c1	%	69.7
O=C1Nc2ccc(Br)cc2/C1=N/c1nc(-c2ccccc2)cs1	%	60.7

Can you look up the measured growth of C=C1C(=O)O[C@H]2[C@H]1CC/C(COC(=O)N[C@@H](Cc1c[nH]c3ccccc13)C(=O)OC)=C\CC[C@@]1(C)O[C@@H]21 for me?
78.8

Can you look up the measured growth of Fc1ccc(-c2cnc3nonc3n2)c(F)c1 for me?
92.1

Can you look up the measured growth of CCc1onc(-c2ccc(OC)cc2)c1-c1ccccc1OCCN(CC)CC for me?
101

Can you look up the measured growth of Cc1nc(N)nc2c1CCC(Nc1ccccc1)S2 (configuration not stated) for me?
109

Can you look up the measured growth of C=CCCCCOc1cccc(/C=C2\N=C3SCCCN3C2=O)c1 for me?
97.7

Can you look up the measured growth of c1ccc2oc(-c3cnc4nonc4n3)cc2c1 for me?
84.8

Can you look up the measured growth of CC1OC(n2c3ccccc3c3c4c(c5c6ccccc6[nH]c5c32)C(=O)N(CCN[C@H]2CCC[C@@H]2N)C4=O)CC(O)C1O (some centres not stated) for me?
40.7

----------
Tested on: SK-MEL-5 melanoma
Experiment: NCI-60 one-dose screen, 48 h
Conditions: 10 µM unless noted
Procedure: Growth inhibition of the SK-MEL-5 human tumor cell line is measured as a screen for anti-cancer activity. Cells are grown in 96 well plates and exposed to the test compound for 48 hours. Compounds are tested at a single concentration, which is 10^-5 M for most compounds. The reported endpoint is percent growth (GI% or GIPRCNT), where numbers from 0 - 100% represent growth inhibition, and numbers from -100% - 0 represent cell death. For example, a value of 40 represents 60% growth inhibition. […]
Compounds without any hit were thinned out: in the full panel of roughly 83,000, 20% have a hit. The source made the active and inactive calls. Rule for the calls: active = growth percent below 10; inactive = the rest.
Your answer must be one of the following: label 1 (active), label 0 (inactive)

MOLECULE	LABEL_CLASS
CCN(CC)CCCC(C)Nc1c(-c2ccccc2)cnc2cc(Cl)ccc12 (configuration not stated)	label 0
COc1ccc(C(=O)OC2C(OC3C(O)COC(O[C@H]4C[C@H]5[C@@H]6CC=C7C[C@@H](O)CC[C@]7(C)[C@H]6CC[C@]5(C)[C@H]4[C@H](C)C(=O)CCC(C)C)C3OC(N)=O)OCC(O)C2O)cc1 (some centres not stated)	label 1
CCC(=O)OCc1ccc(OC)cc1	label 0
COc1ccc(CC2c3cc(OC)c(OC)cc3CC[N+]2(C)CCC(=O)OCCCCCOC(=O)CC[N+]2(C)CCc3cc(OC)c(OC)cc3C2Cc2ccc(OC)c(OC)c2)cc1OC (configuration not stated)	label 0
O=C1/C(=C/N2N=C(c3ccc(Cl)cc3)CC2c2ccccc2O)SC(=S)N1c1cccc(C(F)(F)F)c1 (configuration not stated)	label 0

Each molecule tested received a call. Report the one for O=C(CCCN1CCC(O)(c2ccc(Br)cc2)CC1)c1ccc(F)cc1 .
label 1

Each molecule tested received a call. Report the one for COc1ccc(C(=O)N2N=C(c3ccc(F)cc3)CC2c2cn(-c3ccccc3)nc2-c2ccccc2)cc1 (configuration not stated) .
label 0

Each molecule tested received a call. Report the one for CCN1CCN(Cc2ccc(NC(=O)Nc3ccc(-n4ccc5c(NC(=O)c6ccccc6)nccc54)cc3)cc2C(F)(F)F)CC1 .
label 1

Each molecule tested received a call. Report the one for CN(C)c1ccc(C2(Cl)c3ccccc3N(C)c3ccccc32)cc1 .
label 0

Each molecule tested received a call. Report the one for COC(=O)OC1C(O[C@H]2C[C@H]3[C@@H]4CC=C5C[C@@H](O)CC[C@]5(C)[C@H]4CC[C@]3(C)[C@H]2[C@H](C)C(=O)CCC(C)C)OCC(O)C1OC1OCC(O)C(O)C1OC(=O)c1ccc(OC)cc1 (some centres not stated) .
label 1

Each molecule tested received a call. Report the one for O=S(=O)(Nc1ccc2ccccc2c1)N1CCCCC1 .
label 0

Each molecule tested received a call. Report the one for CC(C)(C)c1nn(-c2ccccc2)c2c1C(=O)CSC(c1ccccc1Cl)N2 (configuration not stated) .
label 0

Each molecule tested received a call. Report the one for COc1cc(/C=N/NC(=O)Cn2c(-c3ccc(C)o3)nc3ccccc32)ccc1OCc1ccccc1 .
label 0

Each molecule tested received a call. Report the one for COc1ccccc1CNCCCN1C(=O)c2ccc3c4c(ccc(c24)C1=O)C(=O)N(CCCCNCCCN)C3=O .
label 1

Each molecule tested received a call. Report the one for COc1cc(CN2CCC(N3CCCC3=O)c3ccccc32)cc(OC)c1OC (configuration not stated) .
label 0

----------
tested on: CCRF-CEM leukemia; test: NCI-60 one-dose screen, 48 h; details: 10 µM unless noted
Compounds without any hit were thinned out: in the full panel of roughly 83,000, 20% have a hit. Active and inactive are the calls of the source. Rule for the calls: active = growth percent below 10; inactive = the rest.
Your answer must be one of the following: 1.0 = active, 0.0 = inactive

Solved cases below.
MOLECULE	LABEL_CLASS
CCN(CC)CCNC(=O)n1cc(-c2ccncc2)c(-c2ccc(Cl)c(OC)c2)n1	0.0
CN1C(=O)C(C2=NNC(c3ccccc3C(=O)O)C2)C(=O)N(C)C1=O (stereo unspecified)	0.0
CC(C)c1ccc2c(c1)CCC1C2CCCC1(C)NCc1ccccc1 (stereo unspecified)	0.0
CCOC(=O)Nc1ccc2nc(N3CCCCCC3)sc2c1	0.0
Nc1c(Br)cc2c(c1Br)Cc1cc(Cl)ccc1-2	0.0
O=C(Nc1ccc([N+](=O)[O-])cc1)c1cc2ccccc2cc1O	1.0

Each molecule tested received a call. Report the one for CC(C)OC1OC(OC(C)C)C(OC(C)C)OC1OC(C)C (stereo unspecified) .
0.0

Each molecule tested received a call. Report the one for O=C(c1ccc(OCCN2CCCCC2)cc1)c1c(-c2ccc(O)cc2)sc2cc(O)ccc12 .
0.0
